B1: Pistol ribozyme (parent)
chain: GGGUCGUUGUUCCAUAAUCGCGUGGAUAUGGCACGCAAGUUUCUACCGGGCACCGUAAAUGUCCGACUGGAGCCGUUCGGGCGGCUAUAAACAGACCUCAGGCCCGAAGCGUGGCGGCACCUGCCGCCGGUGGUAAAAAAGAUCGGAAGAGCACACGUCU

Variants of: B1
assay.comment: aptazyme ON/OFF ratio, guanine; higher = stronger switching; co-transcriptional cleavage with and without guanine
readout.type: aptazyme ON/OFF ratio
API doc: respond with a numeric literal and nothing else, no unit.

# annotated cases, reported aptazyme ON/OFF ratio shown
In [3]: df
Out[3]:
               sequence_change           readout_type  test_result
0       U7G U8C U10C U11C C13A  aptazyme ON/OFF ratio         1.04
1      U7C U10A U11G C12A C13A  aptazyme ON/OFF ratio         1.17
2        U7A U8C G9C C12A C13G  aptazyme ON/OFF ratio         1.14
3       U7G G9U U10G U11C C12A  aptazyme ON/OFF ratio         1.62
4   U7G U8C G9A U10G C12A C13U  aptazyme ON/OFF ratio         1.09
5  U8A G9A U10C U11C C12A C13A  aptazyme ON/OFF ratio         1.07

Moving on to the next variant.
aptazyme ON/OFF ratio for G9C U10A U11C C12A C13A ?
1.3

Where do these numbers come from? They come from the RNAGym collection of RNA variant scans (doi:10.1021/acssynbio.7b00057).
